- measured_target: Kj12B-^CDD_(short) peptide L1564A (Xenorhabdus stockiae KJ12.1, L1564A (stands in the printed letters))
- procedure_text: ITC
quantity_name: Kd

{"binder": "Kj12C-^NDD (N-terminal docking domain of Kj12C) (domain or fragment) GIDAAQIVDEALEQGITLFVVNNRLQYETSRDSIPTELLNKWKQHKQELIDFLNQLDSEEQTK", "obs_value": "> 100 µM"}
